Some molecules, each annotated with its measured pIC50.
- measured-on: Protein-S-isoprenylcysteine O-methyltransferase (Homo sapiens)
- Sequence (O60725 whole entry): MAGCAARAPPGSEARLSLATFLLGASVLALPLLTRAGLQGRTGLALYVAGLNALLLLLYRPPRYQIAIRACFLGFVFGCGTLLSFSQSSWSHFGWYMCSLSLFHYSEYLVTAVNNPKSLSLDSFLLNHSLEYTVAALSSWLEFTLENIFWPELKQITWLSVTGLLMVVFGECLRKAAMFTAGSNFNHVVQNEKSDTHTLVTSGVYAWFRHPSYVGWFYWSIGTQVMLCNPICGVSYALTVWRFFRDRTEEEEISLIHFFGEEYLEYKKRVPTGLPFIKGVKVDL
- test-method-notes: Inhibition of recombinant ICMT expressed in Sf9 cells using [3H] AdoMet after 20 mins by scintillation counting
# pIC50: negative log10 of molar concentration; output just the value

The measured pIC50 associated with CCCCCCCCn1cc(CC(=O)N2CCCCC2)c2cc(-c3cccc(C)c3)ccc21 reads 5.74

The measured pIC50 associated with CCCCCCCCn1cc(CN2CCOCC2)c2cc(-c3cccc(C)c3)ccc21 reads 5.57

The measured pIC50 associated with CCN(CC)Cc1cn(CC=C(C)C)c2ccc(-c3cccc(C)c3)cc12 reads 5.62

The measured pIC50 associated with CCCCCCCCn1cc(CNC(C)=O)c2cc(-c3cccc(C)c3)ccc21 reads 5.74
